Test system: PANC-1 human pancreatic cancer cell line
Assay: Cytotoxicity of third-generation taxoids, PANC-1
Type: cell-based
Details: PANC-1 cells
pIC50: −log10 of the molar value.

{"Molecule": "C=C(C)CC(NC(=O)OC(C)(C)C)C(O)C(=O)OC1CC2(O)C(OC(=O)c3cccc(OC(F)(F)F)c3)C3C4(OC(C)=O)COC4CC(OC)C3(C)C(=O)C(OC)C(=C1C)C2(C)C (centres unmarked) [SB-T-1230105]", "Assay System": "PANC-1 human pancreatic cancer cell line", "pIC50": 9.01}
{"Molecule": "C=C(C)CC(NC(=O)OC(C)(C)C)C(O)C(=O)OC1CC2(O)C(OC(=O)c3cccc(OC(F)(F)F)c3)C3C4(OC(C)=O)COC4CC(O)C3(C)C(=O)C(OC)C(=C1C)C2(C)C (centres unmarked) [SB-T-123005]", "Assay System": "PANC-1 human pancreatic cancer cell line", "pIC50": 9.06}
{"Molecule": "C=C(C)C[C@H](NC(=O)OC(C)(C)C)[C@@H](O)C(=O)O[C@H]1C[C@@]2(O)[C@@H](OC(=O)c3cccc(OC(F)F)c3)[C@@H]3[C@]4(OC(C)=O)CO[C@@H]4C[C@H](O)[C@@]3(C)C(=O)[C@H](OC(=O)CC)C(=C1C)C2(C)C [SB-T-121306]", "Assay System": "PANC-1 human pancreatic cancer cell line", "pIC50": 9.31}
{"Molecule": "C=C(C)CC(NC(=O)OC(C)(C)C)C(O)C(=O)OC1CC2(O)C(OC(=O)c3cccc(OC(F)(F)F)c3)C3C4(OC(C)=O)COC4CC(O)C3(C)C(=O)C(OC(=O)N(C)C)C(=C1C)C2(C)C (centres unmarked) [SB-T-121605]", "Assay System": "PANC-1 human pancreatic cancer cell line", "pIC50": 9.27}
{"Molecule": "C=C(C)CC(NC(=O)OC(C)(C)C)C(O)C(=O)OC1CC2(O)C(OC(=O)c3cccc(OC(F)(F)F)c3)C3C4(OC(C)=O)COC4CC(O)C3(C)C(=O)C(OC(C)=O)C(=C1C)C2(C)C (centres unmarked) [SB-T-121205]", "Assay System": "PANC-1 human pancreatic cancer cell line", "pIC50": 9.12}

* * *

System: LCC6-WT
Test: Cytotoxicity of third-generation taxoids, LCC6-WT
Assay type: cell-based
Conditions: LCC6-WT cells
Label Yes when IC50 is strictly below 0.6 nM; at or above that, label No.

{"Molecule": "C=C(C)CC(NC(=O)OC(C)(C)C)C(O)C(=O)OC1CC2(O)C(OC(=O)c3cccc(OC(F)(F)F)c3)C3C4(OC(C)=O)COC4CC(OC)C3(C)C(=O)C(OC)C(=C1C)C2(C)C (centres unmarked)", "Assay System": "LCC6-WT", "Label": "Yes"}
{"Molecule": "C=C(C)CC(NC(=O)OC(C)(C)C)C(O)C(=O)OC1CC2(O)C(OC(=O)c3cccc(OC(F)F)c3)C3C4(OC(C)=O)COC4CC(OC)C3(C)C(=O)C(OC)C(=C1C)C2(C)C (centres unmarked)", "Assay System": "LCC6-WT", "Label": "No"}
{"Molecule": "C=C(C)CC(NC(=O)OC(C)(C)C)C(O)C(=O)OC1CC2(O)C(OC(=O)c3cccc(OC(F)(F)F)c3)C3C4(OC(C)=O)COC4CC(O)C3(C)C(=O)C(OC(=O)CC)C(=C1C)C2(C)C (centres unmarked)", "Assay System": "LCC6-WT", "Label": "No"}
{"Molecule": "C=C(C)CC(NC(=O)OC(C)(C)C)C(O)C(=O)OC1CC2(O)C(OC(=O)c3cccc(OC(F)F)c3)C3C4(OC(C)=O)COC4CC(O)C3(C)C(=O)C(OC(=O)OC)C(=C1C)C2(C)C (centres unmarked)", "Assay System": "LCC6-WT", "Label": "Yes"}
{"Molecule": "CC(=O)O[C@H]1C(=O)[C@@]2(C)[C@H]([C@H](OC(=O)c3ccccc3)[C@]3(O)C[C@H](OC(=O)[C@H](O)[C@@H](NC(=O)c4ccccc4)c4ccccc4)C(C)=C1C3(C)C)[C@]1(OC(C)=O)CO[C@@H]1C[C@@H]2O [paclitaxel, reference compound]", "Assay System": "LCC6-WT", "Label": "No"}
{"Molecule": "C=C(C)CC(NC(=O)OC(C)(C)C)C(O)C(=O)OC1CC2(O)C(OC(=O)c3cccc(OC(F)F)c3)C3C4(OC(C)=O)COC4CC(O)C3(C)C(=O)C(OC(C)=O)C(=C1C)C2(C)C (centres unmarked)", "Assay System": "LCC6-WT", "Label": "Yes"}
{"Molecule": "C=C(C)CC(NC(=O)OC(C)(C)C)C(O)C(=O)OC1CC2(O)C(OC(=O)c3cccc(OC(F)(F)F)c3)C3C4(OC(C)=O)COC4CC(O)C3(C)C(=O)C(OC(C)=O)C(=C1C)C2(C)C (centres unmarked)", "Assay System": "LCC6-WT", "Label": "Yes"}
{"Molecule": "C=C(C)C[C@H](NC(=O)OC(C)(C)C)[C@@H](O)C(=O)O[C@H]1C[C@@]2(O)[C@@H](OC(=O)c3cccc(OC(F)F)c3)[C@@H]3[C@]4(OC(C)=O)CO[C@@H]4C[C@H](O)[C@@]3(C)C(=O)[C@H](OC(=O)CC)C(=C1C)C2(C)C", "Assay System": "LCC6-WT", "Label": "No"}
{"Molecule": "C=C(C)CC(NC(=O)OC(C)(C)C)C(O)C(=O)OC1CC2(O)C(OC(=O)c3cccc(OC(F)F)c3)C3C4(OC(C)=O)COC4CC(O)C3(C)C(=O)C(OC(=O)C3CC3)C(=C1C)C2(C)C (centres unmarked)", "Assay System": "LCC6-WT", "Label": "Yes"}
{"Molecule": "CC(=O)O[C@@]12CO[C@@H]1C[C@H](O)[C@@]1(C)C(=O)[C@H](OC(=O)C3CC3)C3=C(C)[C@@H](OC(=O)[C@H](O)[C@H](C=C(C)C)NC(=O)OC(C)(C)C)C[C@@](O)([C@@H](OC(=O)c4cccc(OC(F)(F)F)c4)[C@H]21)C3(C)C", "Assay System": "LCC6-WT", "Label": "No"}
